B1: glmS ribozyme (parent)
chain: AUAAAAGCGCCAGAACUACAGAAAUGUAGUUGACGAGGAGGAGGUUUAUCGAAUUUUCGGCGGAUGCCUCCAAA

# Variants of: B1
# TEST PROTOCOL: self-cleavage kobs at 40 uM GlcN6P; higher = faster cleavage; RNA array
# PARTICULARS: with glucosamine-6-phosphate
This sample holds only a part of the variants without activity.
Listing of entries alongside the reported self-cleavage kobs at 40 uM GlcN6P.

C11G A52C = < 1e-05 s⁻¹
G38A C67U C71A = < 1e-05 s⁻¹
A12C G35U = < 1e-05 s⁻¹
A12U A14G A64U G66U = < 1e-05 s⁻¹

Using the record for G13U G29U A36U U57G , state its measured self-cleavage kobs at 40 uM GlcN6P.
< 1e-05 s⁻¹
